Overview of reported log10(IC50) across a group of molecules:
biological target: Apelin receptor (Homo sapiens) (UniProt P35414); assay: potency against CXCR6 with APJ panel – cell-based, beta-arrestin, DiscoveRx, uHTS hits, dose response (AID 624129); conditions: CXCR6 beta-arrestin (DiscoveRx) antagonist cell assay, APJ, run 3, dose range 1
Please note: log10 values; quantity IC50; unit µM.

Illustrative cases are given below, each with its answer.
Exam item: Report log10(IC50), nothing else, for this molecule: FC(F)(F)c1cnc(NNC(=S)Nc2ccc(Cl)cc2)c(Cl)c1
Marked response: 0.93

Exam item: Report log10(IC50), nothing else, for this molecule: CCC(C)c1ccc(O)c(NC(=S)NC(=O)c2cccnc2)c1 (stereo not given)
Marked response: 1.02

Exam item: Report log10(IC50), nothing else, for this molecule: CCCC(=O)OCCNc1cc(Sc2nc3ccccc3[nH]2)c2nonc2c1[N+](=O)[O-]
Marked response: 1.01

Exam item: Report log10(IC50), nothing else, for this molecule: CCCC(=O)OCCNc1cc(Sc2nccn2C)c2nonc2c1[N+](=O)[O-]
Marked response: 0.78

Exam item: Report log10(IC50), nothing else, for this molecule: CN(CCO)c1cc(Sc2nc3ccccc3s2)c2nonc2c1[N+](=O)[O-]
Marked response: 0.92

More entries:
Exam item: Report log10(IC50), nothing else, for this molecule: COc1ccc(C(=O)/C(=C\c2ccco2)N2C=CC=CC2=C(C#N)C#N)cc1
Marked response: 0.75

Exam item: Report log10(IC50), nothing else, for this molecule: C/C(=N\NC(=O)c1cc(-c2cccs2)nc2ccccc12)c1ccccn1
Marked response: 0.65
